assay: absolute recovery over mixed-bed multilayer solid-phase extraction; higher = better recovery; conditions: wastewater influent; enrichment method: SPE
Overview of recorded absolute recovery for various molecules

Completed entries (count: 4):
molecule=CC(C)N(C(=O)C(=O)[O-])c1ccccc1 meas_value=102%
molecule="Nc1ccn(C2OC(CO)C(O)C2(F)F)c(=O)n1 (centres undefined)" meas_value=91.1%
molecule="CC(C)[NH2+]CC(O)c1ccc(NS(C)(=O)=O)cc1 (centres undefined)" meas_value=92%
molecule=CSc1nc(NC(C)C)nc(NC(C)C)n1 meas_value=94.1%

**Query** Determine its reported absolute recovery: CCOc1cc(Oc2ccc(C(F)(F)F)cc2Cl)ccc1[N+](=O)[O-]
**Result** 108%

**Query** Determine its reported absolute recovery: COc1cccc2c1C(=O)c1c(O)c3c(c(O)c1C2=O)CC(O)(C(O)CO)CC3OC1CC([NH3+])C(O)C(C)O1 (centres undefined)
**Result** 79.4%

**Query** Determine its reported absolute recovery: O=c1[nH]sc2ccccc12
**Result** 142%

**Query** Determine its reported absolute recovery: CC(C)(C)[NH2+]CC(O)COc1nsnc1N1CCOCC1 (centres undefined)
**Result** 83.9%

**Query** Determine its reported absolute recovery: CN1CC[NH+]=C(c2ccccc2)c2cc(Cl)ccc21
**Result** 68.8%

###

test: absolute recovery over vacuum-assisted evaporative concentration; higher = better recovery; settings: wastewater influent; enrichment method: VEC
recorded.endpoint: absolute recovery (%)
Provide only the numeric value, understood in %.

Completed entries (count: 5):
molecule="O=C(NCCc1ncc(C(F)(F)F)cc1Cl)c1ccccc1C(F)(F)F [Fluopyram]" meas_value=54.9
molecule="CC(=O)N(C)c1ccc(N)cc1 [N-(4-Aminophenyl)-N-methyl-acetamid]" meas_value=85
molecule="CC(=O)NCC1CN(c2ccc(N3CCOCC3)c(F)c2)C(=O)O1 (stereo not given) [Linezolid]" meas_value=100
molecule="NS(=O)(=O)c1cc(C(=O)[O-])c(NCc2ccco2)cc1Cl [Furosemid]" meas_value=97.9
molecule="CCCS(=O)(=O)[O-] [1-Propanesulfonate]" meas_value=102

**Query** Determine its reported absolute recovery: O=C(C1CCCCC1)N1CC(=O)N2CCc3ccccc3C2C1 (stereo not given) [Praziquantel]
**Result** 89.8

**Query** Determine its reported absolute recovery: CC(C)(C(=O)[O-])c1ccc(C(O)CCC[NH+]2CCC(C(O)(c3ccccc3)c3ccccc3)CC2)cc1 (stereo not given) [Fexofenadin]
**Result** 101

**Query** Determine its reported absolute recovery: CC12CCC(=O)C=C1CCC1C2C(O)CC2(C)C1CCC2(O)C(=O)CO (stereo not given) [Hydrocortison]
**Result** 57.5

**Query** Determine its reported absolute recovery: CCNC(=O)NC(=O)C(C#N)=NOC [Cymoxanil]
**Result** 69.8

**Query** Determine its reported absolute recovery: CC[NH+](CC)CCNC(=O)c1cc(S(C)(=O)=O)ccc1OC [Tiaprid]
**Result** 103

**Query** Determine its reported absolute recovery: COc1cccc(C2(O)CCCCC2C[NH3+])c1 (stereo not given) [N-Bisdesmethyl-Tramadol]
**Result** 98.5

**Query** Determine its reported absolute recovery: Nc1[nH]c(=O)ncc1F [5-Fluoro-Cytosine]
**Result** 58.4

**Query** Determine its reported absolute recovery: CCOC(=O)C1CC(=O)C(=C([O-])C2CC2)C(=O)C1 (stereo not given) [Trinexapac-ethyl]
**Result** 93.4

**Query** Determine its reported absolute recovery: CC(C)(C)Nc1nc(N)nc(Cl)n1 [Terbutylazin-desethyl]
**Result** 104

**Query** Determine its reported absolute recovery: O=[N+]([O-])N=C1NCCN1Cc1ccc(Cl)nc1 [Imidacloprid]
**Result** 98.6

**Query** Determine its reported absolute recovery: CC1(C)SC2C([NH3+])C(=O)N2C1C(=O)[O-] (stereo not given) [6-Aminopenicillanic-acid]
**Result** 86.7

**Query** Determine its reported absolute recovery: CCc1ccc(C(=O)NN(C(=O)c2cc(C)cc(C)c2)C(C)(C)C)cc1 [Tebufenozid]
**Result** 98.1

**Query** Determine its reported absolute recovery: CSc1nc2cc(Oc3cccc(Cl)c3Cl)c(Cl)cc2[nH]1 [Triclabendazol]
**Result** 102

**Query** Determine its reported absolute recovery: CC(C)(C)[NH2+]CC(O)c1ccc(O)c(CO)c1 (stereo not given) [Albuterol]
**Result** 99.8

**Query** Determine its reported absolute recovery: NC(=O)c1cn(Cc2c(F)cccc2F)nn1 [Rufinamid]
**Result** 104

All figures here come from the supplement of paper PMC6470124.
